Values compiled from the nanobody polyreactivity screen of Harvey et al. (2022).

test: yeast display, Sf9 membrane polyspecificity reagent, FACS + sequencing; frameworks hold sequencing errors
OBSERVED PROPERTY: polyreactivity (PSR sort gate)

Please review the following examples before continuing.
[
  {
    "SEQUENCE INPUT": "QVQLVESGGGLVQAGGSLRLTCAASGITFGVYAMGGYRQAPGKERELVAAITRGGRTYYADSVKGRFTISRDNAKNTVYLQMNSLKPVDTAVYYCAAGFWWSSYGYWGQGTQVTVSS",
    "polyreactivity (PSR sort gate)": "high polyreactivity"
  },
  {
    "SEQUENCE INPUT": "QVQLVESGGGLVQAGGSLRLSCAASGFTLRRNAIGWYRQAPGKERELVAAISSSGSTYYADSVKGRFTISRDNAKNTVYLQMYSLKPEDTAVYYCAAQPGRRAGRSGFDYWGQGTQVNVSS",
    "polyreactivity (PSR sort gate)": "high polyreactivity"
  },
  {
    "SEQUENCE INPUT": "QVQLVDSGGGLVKAGCSLRLSCAASGRIFNSYAMGLYRQAPGKETELVAAITWSGDRTNYADSVKGRFTISRDNANNTVYVQMNSLKPEDTAVYYCAADRVRSVRYGYWGKGTQVTVSS",
    "polyreactivity (PSR sort gate)": "low polyreactivity"
  },
  {
    "SEQUENCE INPUT": "QVQLVESGGGLVQAGGSLRLSCAASGFTFYPYAMGWYRQAPGKERELVASFTSAGGTNYADSVKGRFTISRDNAKNTVYLQMNSLKPEDTAVYYCAAKYRSRGPDYYFKSDYWGQGTQVTVSS",
    "polyreactivity (PSR sort gate)": "low polyreactivity"
  },
  {
    "SEQUENCE INPUT": "QVQLVESGGGLVQAGGSLRLSCAASGRTSWYYAMGWYRQAPGNERELVATITRSTGSTYYADSVKGRFTISRDNAKNTVYLQMNCLKPEDTAVYDCARLYYFNGDYWGQGTQVTVSS",
    "polyreactivity (PSR sort gate)": "high polyreactivity"
  }
]

I'd like to know its polyreactivity (PSR sort gate). The sequence in question is `QVQLVESGGGLVQAGGSLRLSCAASGSIFQFYTMGWYRQAPGKERELVAAISSGGTRRYYADSVKGRFTISRDNAKNTVYLQMNSLKPEDTAVYYCAAPWSSSWSGVRTRMGYWGQGTQVTVSS`
high polyreactivity

I'd like to know its polyreactivity (PSR sort gate). The sequence in question is `QVQLHESGGGLVQAGGSLRLSCAASGTISYAGPMGWYRQAPGKEREFVAGIGVGSNTNYADSVKGRYTIIRDNAKNTVYLQMTSLKPEDTAVYYCAVGGYAPLGRPYWGQGTQVTVSS`
low polyreactivity

I'd like to know its polyreactivity (PSR sort gate). The sequence in question is `QVQLVESGGGLVQAGGSLRLSCAASGSIFWVYAMGWSRQAPGKERELVAAISNSGSTNYADSVKGRFTISRDNAKNTVYLQMNSLKPEDTAVYYCAKDSLVDHVGGYDYWGQGTQVTVSS`
low polyreactivity

I'd like to know its polyreactivity (PSR sort gate). The sequence in question is `QVHLVESGGGLVQAGGSLRLSCAASGSTFVGYAMGWYRQAPGKERELVAAISGGDSTYYADSVKGRFTISRDNAKNTVYLQMNSLKPEDTAVYYCNADYGDTFEYDYWGQGTQVTVSS`
low polyreactivity

I'd like to know its polyreactivity (PSR sort gate). The sequence in question is `QVQLVESGGGLVQAGGSLRLSCAASGSTFSYNAMGWYRQAPWKERELVAAISWNGDSTYADSVKGRFTISRDNAKNTVYLQMNSLKPEDTAVYYCAKDTIITPGRRKSPRYRHGYWGQGTQVTVSS`
low polyreactivity

I'd like to know its polyreactivity (PSR sort gate). The sequence in question is `QVQLVESGGGLVQAGGSLRLSCAASGFIFPHNTMGWYRQAPGKERELVAAISSGGSTNYADSVKGRFTISRDNAKNTVYLQMNSLKPEDTAVYYCNKRVRYHSGFGYWGQGTQVTVSS`
low polyreactivity
